pIC50 for assorted molecules
Biological target: human TLR7 (Homo sapiens, UniProt Q9NYK1)
Sequence (Q9NYK1 27-1049): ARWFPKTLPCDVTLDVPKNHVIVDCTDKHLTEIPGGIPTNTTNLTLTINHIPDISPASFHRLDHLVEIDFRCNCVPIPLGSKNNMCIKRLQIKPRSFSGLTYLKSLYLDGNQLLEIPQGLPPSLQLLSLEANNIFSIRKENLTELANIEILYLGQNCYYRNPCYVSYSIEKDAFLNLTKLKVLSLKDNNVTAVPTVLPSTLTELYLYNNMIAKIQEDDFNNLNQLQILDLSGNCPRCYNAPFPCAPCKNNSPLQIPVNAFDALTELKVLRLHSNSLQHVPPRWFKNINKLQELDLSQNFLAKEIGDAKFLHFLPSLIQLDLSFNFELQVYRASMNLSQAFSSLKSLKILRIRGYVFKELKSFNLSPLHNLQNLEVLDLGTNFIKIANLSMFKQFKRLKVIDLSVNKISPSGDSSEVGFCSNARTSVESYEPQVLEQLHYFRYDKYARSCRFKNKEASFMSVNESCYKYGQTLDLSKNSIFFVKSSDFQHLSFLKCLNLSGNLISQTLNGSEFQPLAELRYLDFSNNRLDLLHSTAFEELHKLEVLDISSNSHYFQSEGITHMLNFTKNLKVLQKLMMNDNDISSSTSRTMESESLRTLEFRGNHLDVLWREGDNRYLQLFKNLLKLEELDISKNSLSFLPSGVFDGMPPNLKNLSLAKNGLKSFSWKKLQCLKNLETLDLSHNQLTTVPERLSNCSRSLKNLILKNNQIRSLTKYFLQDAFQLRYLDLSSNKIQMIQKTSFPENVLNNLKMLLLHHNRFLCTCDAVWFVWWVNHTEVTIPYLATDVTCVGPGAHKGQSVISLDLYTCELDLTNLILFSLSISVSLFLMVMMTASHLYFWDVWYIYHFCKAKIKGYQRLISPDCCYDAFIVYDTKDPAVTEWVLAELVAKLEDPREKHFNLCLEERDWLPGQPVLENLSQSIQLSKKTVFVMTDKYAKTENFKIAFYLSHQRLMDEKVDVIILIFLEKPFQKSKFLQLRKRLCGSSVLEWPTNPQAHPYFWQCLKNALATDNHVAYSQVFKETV
Assay: TLR7 inhibition reporter assay (HEK-Blue cells, SEAP reporter, gardiquimod stimulation)
Details: HEK-Blue cells overexpressing human TLR7, SEAP reporter, gardiquimod 7.5 μM
Excerpt: TLR7/8/9 Inhibition Reporter Assays HEK-Blue™-cells (Invivogen) overexpressing human TLR7, TLR8 or TLR9 receptors were used for screening inhibitors of these receptors using an inducible SEAP (secreted embryonic alkaline phosphatase) reporter gene under the control of the IFN-β minimal promoter fused to five NF-κB and AP-1-binding sites. […]
pIC50: −log10 of the molar value.

Solved entries (count: 2):
CNCCN1CCC(c2ccc3[nH]c(-c4ccnc5[nH]ncc45)c(C(C)C)c3c2)C(F)C1 (stereo not shown) [Example 678] :: 6.00 to 7.00
Cc1nc2cc(-c3[nH]c4ccc(C5CCN(C(=O)CN(C)C)CC5)cc4c3C(C)C)cc(C)c2o1 :: 6.00 to 7.00

Ask: What measured pIC50 goes with Cc1cc(-c2[nH]c3ccc(C4CCN(CC(=O)N(C)C)CC4)cc3c2C(C)C)nn2ccnc12 ?
Reply: > 7.00

Ask: What do you get for COc1cc(-c2[nH]c3ccc(C4CCN(CCS(C)(=O)=O)CC4)cc3c2C(C)C)nn2ncnc12 ?
Reply: > 7.00

Ask: What do you get for COC(=O)C1CC(N2CCC(c3ccc4[nH]c(-c5ccnc6[nH]ncc56)c(C(C)C)c4c3)CC2)CCN1 (stereo not shown) ?
Reply: > 7.00

Ask: What do you get for Cc1cc(-c2[nH]c3ccc(C4CCN(C(=O)CCN5CCCC5)CC4)cc3c2C(C)C)cn2nnnc12 ?
Reply: > 7.00

Ask: What do you get for CC(C)c1c(-c2cnc3ccnn3c2)[nH]c2ccc(C3CCN(C(=O)CN(C)C)CC3)cc12 ?
Reply: 4.30 to 6.00

Attribution: patent US11739098B2
